Target: GST-Aq-NF-kB (Amphimedon queenslandica, UniProt A9Y5G7 2-389)
Sequence: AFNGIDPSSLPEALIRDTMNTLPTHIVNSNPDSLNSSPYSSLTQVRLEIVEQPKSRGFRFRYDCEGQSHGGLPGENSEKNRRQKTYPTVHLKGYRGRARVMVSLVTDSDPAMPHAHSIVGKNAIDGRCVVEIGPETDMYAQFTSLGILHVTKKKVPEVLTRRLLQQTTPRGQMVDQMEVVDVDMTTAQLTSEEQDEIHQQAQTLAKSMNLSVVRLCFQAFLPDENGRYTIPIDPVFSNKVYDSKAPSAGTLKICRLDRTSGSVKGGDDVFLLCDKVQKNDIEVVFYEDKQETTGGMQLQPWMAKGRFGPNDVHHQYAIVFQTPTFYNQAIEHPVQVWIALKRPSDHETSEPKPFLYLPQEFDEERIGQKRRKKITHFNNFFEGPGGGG
Assay: protein-binding microarray (PBM); PBM: ~300 nM protein, 6 mM HEPES pH 7.8, 80 mM KCl, 0.5 mM EDTA, 0.5 mM EGTA, 6% glycerol, 35 ng/ul poly-dIdC, 1% milk, 1 h, room temperature; Ap Aiptasia and Nv Nematostella (sea anemones) / Co Capsaspora / Aq Amphimedon (sponge) / Dm Drosophila / Hu human; RHD is the Rel homology domain; high values mean tight binding
Conditions: dsDNA, one strand shown
Property: binding signal (z-score)
Answers are plain numbers, in z-score.

Report binding signal for every entry below.
1. CCGATTAACATCAGATAACCCCCTGATGTTAATCGGGTCTTGATTCGCTTGACGCTGCTG
2. CCGATTAACATCAATAAACCCCCTGATGTTAATCGGGTCTTGATTCGCTTGACGCTGCTG
3. CCGATTAACATCAGAAATATCCCTGATGTTAATCGGGTCTTGATTCGCTTGACGCTGCTG
4. CCGATTAACATCAGGGGGTGTTATGATGTTAATCGGGTCTTGATTCGCTTGACGCTGCTG
5. CCGATTAACATCAGGGAAGACGTTGATGTTAATCGGGTCTTGATTCGCTTGACGCTGCTG
6. CCGATTAACATCAGTTTTCCCCATGATGTTAATCGGGTCTTGATTCGCTTGACGCTGCTG

6.11
6.33
4.26
5.4
1.11
4.82

Report binding signal for every entry below.
1. CCGATTAACATCAGGGATAACCCTGATGTTAATCGGGTCTTGATTCGCTTGACGCTGCTG
2. CCGATTAACATCACGGAAAAGCCTGATGTTAATCGGGTCTTGATTCGCTTGACGCTGCTG
3. CCGATTAACATCAAAATAGCCCCTGATGTTAATCGGGTCTTGATTCGCTTGACGCTGCTG
4. CCGATTAACATCAGGAATTCCCCTGATGTTAATCGGGTCTTGATTCGCTTGACGCTGCTG
5. CCGATTAACATCAAGGAAGTCCCTGATGTTAATCGGGTCTTGATTCGCTTGACGCTGCTG
6. CCGATTAACATCAAAAATTTACCTGATGTTAATCGGGTCTTGATTCGCTTGACGCTGCTG
7. CCGATTAACATCAGGGGGGGGACTGATGTTAATCGGGTCTTGATTCGCTTGACGCTGCTG
8. CCGATTAACATCACGGGGTTGCCTGATGTTAATCGGGTCTTGATTCGCTTGACGCTGCTG

[6.12, 1.34, 5.87, 11.5, 5.83, 2.7, 5.29, 2.2]
